Sourced from PubChem BioAssay (NCI)

Test system: SF-268 CNS
experimental-protocol: NCI-60 one-dose screen, 48 h (100 = growth as untreated, 0 = no growth, -100 = all killed)
measurement-setup: 10 µM unless noted
The panel holds about 83,000 compounds, 20% with a hit somewhere; the sample as a whole holds those more often. Active and inactive are the calls of the source. The calls were made as follows: active = growth percent below 10; inactive = the rest.

smiles-notation	growth
COc1cc(/C=C2\CN(C(=O)OC(C)(C)C)C/C(=C\c3ccc(O)c(OC)c3)C2=O)ccc1O	89.5% (inactive)
COc1ccc(-c2cc(C(=O)Nc3ccc(C)cc3)nc3[nH]c(=O)sc23)cc1	88.7% (inactive)
COc1cc([N+](=O)[O-])cc(OC)c1OC	110% (inactive)
O=C(O)c1ccccc1Oc1cc(-c2ccco2)nc(OCCN2CCOCC2)n1	114% (inactive)
COc1ccc2nc3ccccc3c(NCc3ccc(Cl)cc3)c2c1	53.5% (inactive)
COc1ccc(/C=C/c2nc(NCCCN(C)C)c3ccccc3n2)cc1	55% (inactive)
CSc1nc(N)c2[nH]c(-c3cc4ccccc4[nH]c3=O)nc2n1	78.2% (inactive)
O=S(=O)(Nc1ccc2ccccc2c1)N1CCCCC1	61.3% (inactive)
Nc1ccc(C2=NNC(=O)Cc3cc4c(cc32)OCCO4)cc1Cl	59.7% (inactive)
COc1ccc2nc3ccccc3c(NCc3ccc(C)cc3)c2c1	48.4% (inactive)
CCOC(=O)C#Cc1c(C(=O)OCC)nnn1[C@@H]1O[C@H](COC(C)=O)[C@@H](OC(C)=O)[C@H]1OC(C)=O	97.8% (inactive)
CNC(=O)c1c(NC(=O)c2cccc(C(F)(F)F)c2)sc2c1CCC(=O)C2	21.7% (inactive)
CCCCCCCOc1cccc(/C=C2\N=C3SCCCN3C2=O)c1	103% (inactive)
